test: xn = mol fraction of the nth substance listed, in the solute-free solvent; conditions: 293.15 K; x2 = 0.1666
Cut-off 0.1 on solubility (g/100 g solution), inclusive. At or above means met; below means not met.

Is the recorded value of solubility (g/100 g solution) equal to or greater than 0.1 for this compound? CC(C)C(=O)Nc1ccc([N+](=O)[O-])c(C(F)(F)F)c1 + CC(C)O + O met

Is the recorded value of solubility (g/100 g solution) equal to or greater than 0.1 for this compound? O=c1cc(CBr)c2ccccc2[nH]1 + CC(C)O + O not met

Is the recorded value of solubility (g/100 g solution) equal to or greater than 0.1 for this compound? Nc1ncc(Br)nc1Br + CC(C)O + O met

Is the recorded value of solubility (g/100 g solution) equal to or greater than 0.1 for this compound? O=C1C=CC(=O)N1c1ccccc1Br + CC(C)O + O met

Is the recorded value of solubility (g/100 g solution) equal to or greater than 0.1 for this compound? O=c1cc(CBr)c2ccccc2[nH]1 + CCCO + O not met
